PBM binding z-score reference
test system: LXRa homodimer (NR concentration 270 nM); experiment: PBM binding z-score (relative to random genomic background probes); higher = stronger binding; sequences stand for … in GC…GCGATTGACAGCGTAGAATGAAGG
Measured metric: PBM binding z-score

{"columns": ["Sequence input", "Endpoint result"],
 "data": [
  ["CCTAGCAGGACAGGGTCACTCAAGCATTTCGCTT", -0.28],
  ["TCTATTAGTTGAAGGGCAACCGCCGAGTCCGTTT", 0.578],
  ["CCTCGGAGTACAGAAGGTCAGAGCTGTCCGCTTT", 1.46]
]}

---

system: PPARg:RXRa IVT, anti-PPARg (NR concentration 270 nM, RXRa partner concentration 90 nM); assay: PBM binding z-score (relative to random genomic background probes); higher = stronger binding; sequences stand for … in GC…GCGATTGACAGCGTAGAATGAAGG
Measured metric: PBM binding z-score

{"columns": ["Sequence input", "Assayed target", "Endpoint result"],
 "data": [
  ["CGTTCAAGGTCAGAGAGGTCAGTGAATGCCGAGT", "PPARg:RXRa IVT, anti-PPARg (NR concentration 270 nM, RXRa partner concentration 90 nM)", 4.41],
  ["ATATGTAGGTTATCGGGTCAATCAGTTTGCGCAT", "PPARg:RXRa IVT, anti-PPARg (NR concentration 270 nM, RXRa partner concentration 90 nM)", 7.57],
  ["CCAGACCGGTGAAAGGTAACTCAGTCTGGTACGC", "PPARg:RXRa IVT, anti-PPARg (NR concentration 270 nM, RXRa partner concentration 90 nM)", 1.07],
  ["AGAACGAGGGCAGTGAGTTGATAGCACGGGTGGC", "PPARg:RXRa IVT, anti-PPARg (NR concentration 270 nM, RXRa partner concentration 90 nM)", 1.32],
  ["CCTAGCAGGCCAATCTGGGTCACTCATGGCTTGA", "PPARg:RXRa IVT, anti-PPARg (NR concentration 270 nM, RXRa partner concentration 90 nM)", 4.89],
  ["TTACCAAGGTGAAAGGTCGTTGGTGCACGCCTTG", "PPARg:RXRa IVT, anti-PPARg (NR concentration 270 nM, RXRa partner concentration 90 nM)", 5.34],
  ["CTCGAAAGGTCGTGCTCAGGTGCGTATACCAAAC", "PPARg:RXRa IVT, anti-PPARg (NR concentration 270 nM, RXRa partner concentration 90 nM)", 1.52],
  ["CCGAGTAGGTTATGGGGCACTCAGGCAACGGTGA", "PPARg:RXRa IVT, anti-PPARg (NR concentration 270 nM, RXRa partner concentration 90 nM)", 3.7],
  ["ACTAGCAGGCCAAGTTTGGGTCACTCCAACAAAG", "PPARg:RXRa IVT, anti-PPARg (NR concentration 270 nM, RXRa partner concentration 90 nM)", 1.34],
  ["ACTAGTTGGTCGGCTGAGGTCACACACAATTCGG", "PPARg:RXRa IVT, anti-PPARg (NR concentration 270 nM, RXRa partner concentration 90 nM)", 2.09],
  ["TAGCCTAGGTCAGACCGGGCCAGTATACGCTATA", "PPARg:RXRa IVT, anti-PPARg (NR concentration 270 nM, RXRa partner concentration 90 nM)", 1.13],
  ["CCTACTGGGCCATTCAGAGGTCATTGCTCATATG", "PPARg:RXRa IVT, anti-PPARg (NR concentration 270 nM, RXRa partner concentration 90 nM)", 4.29],
  ["TCTATTAGTTGAAGGGCAAACGACGAGTCCGTTT", "PPARg:RXRa IVT, anti-PPARg (NR concentration 270 nM, RXRa partner concentration 90 nM)", 0.694],
  ["CCTATTAGTTGACCATAAGGGCAACTGAAGCTCG", "PPARg:RXRa IVT, anti-PPARg (NR concentration 270 nM, RXRa partner concentration 90 nM)", 0.85],
  ["CAAACTACGTCACGAAAGGTCAAAGTCGAATGAC", "PPARg:RXRa IVT, anti-PPARg (NR concentration 270 nM, RXRa partner concentration 90 nM)", 2.49],
  ["CAAACTAGGTCTCGAAAGGTCAAAGTCGAATGAC", "PPARg:RXRa IVT, anti-PPARg (NR concentration 270 nM, RXRa partner concentration 90 nM)", 5.71],
  ["TCATATAGGTAACCAGGTGAAAGTCCGTAAGTTA", "PPARg:RXRa IVT, anti-PPARg (NR concentration 270 nM, RXRa partner concentration 90 nM)", 5.99],
  ["AGAATAAGGTTATACGTAGATCAGGGAAGAAAGT", "PPARg:RXRa IVT, anti-PPARg (NR concentration 270 nM, RXRa partner concentration 90 nM)", 1.19],
  ["TAGCCTAGGTCAGATCGGGCCAATATACGCTATA", "PPARg:RXRa IVT, anti-PPARg (NR concentration 270 nM, RXRa partner concentration 90 nM)", 1.37],
  ["AGAACGAGGGCACGCGGAGTTGATAGCAGAGTAG", "PPARg:RXRa IVT, anti-PPARg (NR concentration 270 nM, RXRa partner concentration 90 nM)", 4.01],
  ["GATACAGGCTCAAGGCCAGAGTACGCGTATTGAT", "PPARg:RXRa IVT, anti-PPARg (NR concentration 270 nM, RXRa partner concentration 90 nM)", -0.511],
  ["CCTAGTTGGTCAAGGTCACTCACGCTATAGGTAC", "PPARg:RXRa IVT, anti-PPARg (NR concentration 270 nM, RXRa partner concentration 90 nM)", 3.16]
]}
